# Procedure details: Beagle PK evaluation experiment
# Format: in vivo
# Recorded conditions: dog, plasma, iv, dose 1 mg/kg, n=3, read-out: AUClast iv (area under concentration-time curve for 0-24 h)
Measurement label: AUC(0-t) (ng·h/mL)

CC(C)n1cc(-c2ccc(F)cc2)c(=O)c(C(=O)Nc2ncc(Oc3ccnc(N)c3Cl)cn2)n1 [Compound 12] :: 1530
C=CCn1cc(-c2ccc(F)cc2)c(=O)c(C(=O)Nc2ccc(Oc3ccnc(N)c3Cl)cn2)n1 [Compound 35] :: 4120
CC(C)n1cc(-c2ccc(F)cc2)c(=O)c(C(=O)Nc2ccc(Oc3ccnc(N)c3Cl)cn2)n1 [Compound 11] :: 3320
Nc1nccc(Oc2ccc(NC(=O)c3nn(C4CC4)cc(-c4ccc(F)cc4)c3=O)nc2)c1Cl [Compound 17] :: 3360

[A] C=CCn1cc(-c2ccc(F)cc2)c(=O)c(C(=O)Nc2ncc(Oc3ccnc(N)c3Cl)cn2)n1 [Compound 37]
[B] Nc1nccc(Oc2cnc(NC(=O)c3nn(C4CC4)cc(-c4ccc(F)cc4)c3=O)nc2)c1Cl [Compound 18]
Inquiry: Select the item with the higher value of AUC(0-t) from the options A and B listed. Bench note: the answer is the label of the chosen record.
Reply text: B
(B: 3730 ng·h/mL, A: 2600 ng·h/mL)

###

# Procedure details: Beagle PK evaluation experiment
# Type: in vivo
# Recorded conditions: dog, plasma, iv, dose 1 mg/kg, n=3, read-out: Vz_obs iv (apparent volume of distribution)
Measurement label: Vd (L/kg)

Guide cases for Vd, answers given:
CC(C)n1cc(-c2ccc(F)cc2)c(=O)c(C(=O)Nc2ncc(Oc3ccnc(N)c3Cl)cn2)n1 :: 1.04
C=CCn1cc(-c2ccc(F)cc2)c(=O)c(C(=O)Nc2ccc(Oc3ccnc(N)c3Cl)cn2)n1 :: 3.16
Nc1nccc(Oc2ccc(NC(=O)c3nn(C4CC4)cc(-c4ccc(F)cc4)c3=O)nc2)c1Cl :: 3.16

[P] Nc1nccc(Oc2cnc(NC(=O)c3nn(C4CC4)cc(-c4ccc(F)cc4)c3=O)nc2)c1Cl
[Q] C=CCn1cc(-c2ccc(F)cc2)c(=O)c(C(=O)Nc2ncc(Oc3ccnc(N)c3Cl)cn2)n1
[R] CC(C)n1cc(-c2ccc(F)cc2)c(=O)c(C(=O)Nc2ccc(Oc3ccnc(N)c3Cl)cn2)n1
Inquiry: Thanks in advance: please rank these 3 entries by Vd, highest to lowest. A complete answer lists every label in the requested sequence.
Reply text: R, Q, P
(R: 5.36 L/kg, Q: 1.07 L/kg, P: 0.65 L/kg)

###

# Procedure details: Beagle PK evaluation experiment
# Format: in vivo
# Recorded conditions: dog, plasma, iv/po dose 1/1 mg/kg, n=3, read-out: F % (absolute bioavailability)
Measurement label: bioavailability (%)

Guide cases for bioavailability, answers given:
CC(C)n1cc(-c2ccc(F)cc2)c(=O)c(C(=O)Nc2ncc(Oc3ccnc(N)c3Cl)cn2)n1 :: 78
CC(C)n1cc(-c2ccc(F)cc2)c(=O)c(C(=O)Nc2ccc(Oc3ccnc(N)c3Cl)cn2)n1 :: 37.3

[a] Nc1nccc(Oc2cnc(NC(=O)c3nn(C4CC4)cc(-c4ccc(F)cc4)c3=O)nc2)c1Cl
[b] C=CCn1cc(-c2ccc(F)cc2)c(=O)c(C(=O)Nc2ccc(Oc3ccnc(N)c3Cl)cn2)n1
[c] Nc1nccc(Oc2ccc(NC(=O)c3nn(C4CC4)cc(-c4ccc(F)cc4)c3=O)nc2)c1Cl
Inquiry: Write the entries in order, lowest recorded bioavailability first. A complete answer lists every label in the requested sequence.
Reply text: a, b, c
(a: 29.7%, b: 50.7%, c: 109%)

###

The reader will find IC50 measurements below, all made with LCK (h) (Homo sapiens, UniProt P06239).
Sequence (P06239 whole entry): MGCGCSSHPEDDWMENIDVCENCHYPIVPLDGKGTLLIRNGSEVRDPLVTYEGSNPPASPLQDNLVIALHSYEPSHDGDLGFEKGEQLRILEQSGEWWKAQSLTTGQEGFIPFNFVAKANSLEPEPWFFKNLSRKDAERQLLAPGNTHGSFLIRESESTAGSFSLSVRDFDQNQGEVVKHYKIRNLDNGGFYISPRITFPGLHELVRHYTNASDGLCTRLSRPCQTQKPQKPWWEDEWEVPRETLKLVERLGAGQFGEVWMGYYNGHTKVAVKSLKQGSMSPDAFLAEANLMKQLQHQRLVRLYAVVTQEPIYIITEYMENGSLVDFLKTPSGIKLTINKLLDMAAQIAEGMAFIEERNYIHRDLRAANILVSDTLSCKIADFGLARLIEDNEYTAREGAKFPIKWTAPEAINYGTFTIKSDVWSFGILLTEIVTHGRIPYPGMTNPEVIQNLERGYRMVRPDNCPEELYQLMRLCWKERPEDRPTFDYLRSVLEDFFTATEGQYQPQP
Measurement label: IC50 (nM)

Guide cases for IC50, answers given:
C=CCn1cc(-c2ccc(F)cc2)c(=O)c(C(=O)Nc2ccc(Oc3ccnc(N)c3Cl)cn2)n1 :: 20
CC(C)n1cc(-c2ccc(F)cc2)c(=O)c(C(=O)Nc2cnc(Oc3ccnc(N)c3Cl)nc2)n1 :: 579
C=CCn1cc(-c2ccc(F)cc2)c(=O)c(C(=O)Nc2cnc(Oc3ccnc(N)c3Cl)nc2)n1 :: 1070
Nc1nccc(Oc2ccc(NC(=O)c3nn(C4CC4)cc(-c4ccc(F)cc4)c3=O)nc2)c1Cl :: 24
Cn1cc(-c2ccc(F)cc2)c(=O)c(C(=O)Nc2ccc(Oc3ccnc(N)c3Cl)cn2)n1 :: 26

[a] CC(C)n1cc(-c2ccc(F)cc2)c(=O)c(C(=O)Nc2ccc(Oc3ccnc(N)c3Cl)cn2)n1
[b] Nc1nccc(Oc2ncc(NC(=O)c3nn(C4CC4)cc(-c4ccc(F)cc4)c3=O)cn2)c1Cl
[c] Nc1nccc(Oc2ccc(NC(=O)c3nn(C4CC4)cc(-c4ccc(F)cc4)c3=O)cn2)c1Cl
Inquiry: Thanks in advance: please rank these 3 entries by IC50, highest to lowest. A complete answer lists every label in the requested sequence.
Reply text: b, c, a

[P] C=CCn1cc(-c2ccc(F)cc2)c(=O)c(C(=O)Nc2ccc(Oc3ccnc(N)c3Cl)nc2)n1
[Q] CC(C)n1cc(-c2ccc(F)cc2)c(=O)c(C(=O)Nc2ncc(Oc3ccnc(N)c3Cl)cn2)n1
Inquiry: Could you determine which record has the numerically smaller IC50? Candidates: P and Q Bench note: the answer is the label of the chosen record.
Reply text: Q

###

This section presents molecules with their documented IC50 values.
# Tested system: H1299 cell pAxl (Homo sapiens)
# Construct: endogenous in cells
# Sequence (P30530 26-894): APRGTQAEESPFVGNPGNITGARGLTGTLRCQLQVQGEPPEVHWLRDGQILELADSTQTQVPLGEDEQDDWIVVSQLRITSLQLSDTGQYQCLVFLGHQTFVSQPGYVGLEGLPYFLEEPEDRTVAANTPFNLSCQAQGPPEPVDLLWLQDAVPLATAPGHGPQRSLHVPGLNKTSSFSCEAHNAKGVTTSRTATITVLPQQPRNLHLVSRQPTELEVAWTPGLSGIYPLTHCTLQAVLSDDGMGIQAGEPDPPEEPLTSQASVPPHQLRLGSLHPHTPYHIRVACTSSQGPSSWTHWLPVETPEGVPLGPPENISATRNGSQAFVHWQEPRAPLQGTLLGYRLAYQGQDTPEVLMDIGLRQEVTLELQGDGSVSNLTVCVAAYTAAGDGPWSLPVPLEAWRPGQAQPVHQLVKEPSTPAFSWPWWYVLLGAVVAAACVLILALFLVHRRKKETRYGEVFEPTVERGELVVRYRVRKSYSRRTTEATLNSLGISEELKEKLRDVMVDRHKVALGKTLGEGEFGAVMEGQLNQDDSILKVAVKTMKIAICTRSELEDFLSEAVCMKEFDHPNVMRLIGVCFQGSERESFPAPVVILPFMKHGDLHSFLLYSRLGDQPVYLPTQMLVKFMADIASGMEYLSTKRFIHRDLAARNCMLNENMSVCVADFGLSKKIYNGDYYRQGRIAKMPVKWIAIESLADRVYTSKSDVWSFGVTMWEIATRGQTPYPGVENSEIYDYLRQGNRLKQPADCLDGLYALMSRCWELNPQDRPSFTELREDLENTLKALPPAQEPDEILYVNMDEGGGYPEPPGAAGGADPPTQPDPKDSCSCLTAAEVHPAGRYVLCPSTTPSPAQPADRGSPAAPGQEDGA
# Procedure details: Inhibitory activity on cell pAxl (H1299 cells, hGAS6 stimulation, Western Blot)
# Recorded conditions: hGAS6 200 ng/mL, tested at 1.1, 3.3, 10 and 30 nM, read-out: Inhibitory Activity on Cell pAx1, IC50

Guide cases for IC50, answers given:
CC(C)n1cc(-c2ccc(F)cc2)c(=O)c(C(=O)Nc2ccc(Oc3ccnc(N)c3Cl)cn2)n1 [Compound 11] :: < 1.1 nM
C=CCn1cc(-c2ccc(F)cc2)c(=O)c(C(=O)Nc2ccc(Oc3ccnc(N)c3Cl)cn2)n1 [Compound 35] :: < 1.1 nM
C=CCn1cc(-c2ccc(F)cc2)c(=O)c(C(=O)Nc2ncc(Oc3ccnc(N)c3Cl)cn2)n1 [Compound 37] :: 1.1 nM
CC(C)n1cc(-c2ccc(F)cc2)c(=O)c(C(=O)Nc2ccc(Oc3ccnc(N)c3Cl)nc2)n1 [Compound 13] :: 1.1 to 3.3 nM
CC(C)n1cc(-c2ccc(F)cc2)c(=O)c(C(=O)Nc2ccc(Oc3cc4cnn(C)c4cc3-c3cn[nH]c3)cn2)n1 [Compound 1] :: 1.1 nM
Nc1nccc(Oc2ccc(NC(=O)c3nn(C4CC4)cc(-c4ccc(F)cc4)c3=O)nc2)c1Cl [Compound 17] :: < 1.1 nM

Inquiry: # get_value(readout='IC50', item= Cn1cc(-c2ccc(F)cc2)c(=O)c(C(=O)Nc2ccc(Oc3ccnc(N)c3Cl)cn2)n1 [Compound 33] )
Reply text: 3.3 to 10 nM

Inquiry: Same question for Nc1nccc(Oc2cnc(NC(=O)c3nn(C4CC4)cc(-c4ccc(F)cc4)c3=O)nc2)c1Cl [Compound 18] please.
Reply text: 3.3 nM

Inquiry: Same question for C=CCn1cc(-c2ccc(F)cc2)c(=O)c(C(=O)Nc2ccc(Oc3ccnc(N)c3Cl)nc2)n1 [Compound 39] please.
Reply text: 1.1 to 3.3 nM

Inquiry: Same question for Nc1nccc(Oc2ccc(NC(=O)c3nn(C4CC4)cc(-c4ccc(F)cc4)c3=O)cn2)c1Cl [Compound 19] please.
Reply text: 3.3 to 10 nM

Inquiry: Same question for CC(C)n1cc(-c2ccc(F)cc2)c(=O)c(C(=O)Nc2ncc(Oc3ccnc(N)c3Cl)cn2)n1 [Compound 12] please.
Reply text: 3.3 nM

Inquiry: Same question for Nc1nccc(Oc2ncc(NC(=O)c3nn(C4CC4)cc(-c4ccc(F)cc4)c3=O)cn2)c1Cl [Compound 20] please.
Reply text: 10 to 30 nM
